test: Half life in BALB/c mouse at 2 mg/kg, iv; assay type: ADME, organism-based; details: in vivo
endpoint name: half-life (h)
Give just the numeric value; h need not be written.

Ask | Which half-life value belongs to CC(C)(O)CN1C(=O)[C@H](F)C[C@H]1C(=O)N1CC[C@@]2(S(=O)(=O)c3ccc(F)cc3)c3ccc(C(F)(C(F)(F)F)C(F)(F)F)cc3CC[C@@H]12 ?
Reply | 15

* * *

assay: Solubility of the compound at pH 6.7; format: physicochemical; conditions: buffer
endpoint name: solubility

Ask | Any idea what its solubility is? The molecule is CC(C)(CN1C(=O)[C@H](F)C[C@H]1C(=O)N1CC[C@@]2(S(=O)(=O)c3ccc(F)cc3)c3ccc(C(F)(C(F)(F)F)C(F)(F)F)cc3CC[C@@H]12)OP(=O)(O)O
Reply | ≥ 4700 µg/mL

* * *

experiment: Half life in human liver microsomes; type: ADME, Microsome
Please respond with reported half-life for every item in the list.
# unit: min | format: bare number

Ask | What value of half-life has been reported for the following compound? O=C1[C@H](F)C[C@@H](C(=O)N2CC[C@@]3(S(=O)(=O)c4ccc(F)cc4)c4ccc(C(F)(C(F)(F)F)C(F)(F)F)cc4CC[C@@H]23)N1Cc1ccc(F)cc1
Reply | 24

Ask | I would be grateful if you could share the reported half-life for CC(C)N1C(=O)[C@H](F)C[C@H]1C(=O)N1CC[C@@]2(S(=O)(=O)c3ccc(F)cc3)c3ccc(C(F)(C(F)(F)F)C(F)(F)F)cc3CC[C@@H]12 .
Reply | 50

Ask | Suppose we examine the compound N#Cc1ccc(CN2C(=O)[C@H](F)C[C@H]2C(=O)N2CC[C@@]3(S(=O)(=O)c4ccc(F)cc4)c4ccc(C(F)(C(F)(F)F)C(F)(F)F)cc4CC[C@@H]23)cc1 ; what half-life value has been reported?
Reply | 58

Ask | Consider the compound [2H]C([2H])([2H])N1C(=O)C(F)(F)C[C@H]1C(=O)N1CC[C@@]2(S(=O)(=O)c3ccc(F)cc3)c3ccc(C(F)(C(F)(F)F)C(F)(F)F)cc3CC[C@@H]12 and give its measured half-life.
Reply | 57

Ask | # lookup: half-life of CN1C(=O)CC[C@H]1C(=O)N1CC[C@@]2(S(=O)(=O)c3ccc(F)cc3)c3ccc(C(F)(C(F)(F)F)C(F)(F)F)cc3CC[C@@H]12
Reply | 87

Ask | What half-life value was documented for this compound, CN1C(=O)[C@@H](O)C[C@H]1C(=O)N1CC[C@@]2(S(=O)(=O)c3ccc(F)cc3)c3ccc(C(F)(C(F)(F)F)C(F)(F)F)cc3CC[C@@H]12 ?
Reply | 27

* * *

Target: Nuclear receptor ROR-alpha (Homo sapiens, UniProt P35398)
Sequence (P35398 whole entry): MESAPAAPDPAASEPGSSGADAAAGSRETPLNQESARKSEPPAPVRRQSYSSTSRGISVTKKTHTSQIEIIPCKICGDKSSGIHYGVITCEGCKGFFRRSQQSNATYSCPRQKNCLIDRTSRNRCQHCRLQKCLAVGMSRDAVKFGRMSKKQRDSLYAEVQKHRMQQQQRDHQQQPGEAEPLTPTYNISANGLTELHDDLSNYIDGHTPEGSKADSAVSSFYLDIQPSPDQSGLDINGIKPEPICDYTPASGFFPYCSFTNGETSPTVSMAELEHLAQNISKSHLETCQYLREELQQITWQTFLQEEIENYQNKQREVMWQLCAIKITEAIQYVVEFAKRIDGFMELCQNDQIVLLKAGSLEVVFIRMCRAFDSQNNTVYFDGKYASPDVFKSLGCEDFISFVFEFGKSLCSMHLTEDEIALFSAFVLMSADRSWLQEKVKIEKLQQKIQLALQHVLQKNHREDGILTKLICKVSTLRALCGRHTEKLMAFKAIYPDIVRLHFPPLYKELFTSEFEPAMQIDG
Assay: Inverse agonist activity at Gal4-fused RORalpha (unknown origin)
pEC50: −log10 of the molar value.
endpoint name: pEC50

Ask | I have this compound here, CC(C)(O)CN1C(=O)[C@H](F)C[C@H]1C(=O)N1CC[C@@]2(S(=O)(=O)c3ccc(F)cc3)c3ccc(C(F)(C(F)(F)F)C(F)(F)F)cc3CC[C@@H]12 , and I need its recorded pEC50.
Reply | < 5.00

* * *

Target: Nuclear receptor ROR-beta (Homo sapiens, UniProt Q92753)
Sequence (Q92753 whole entry): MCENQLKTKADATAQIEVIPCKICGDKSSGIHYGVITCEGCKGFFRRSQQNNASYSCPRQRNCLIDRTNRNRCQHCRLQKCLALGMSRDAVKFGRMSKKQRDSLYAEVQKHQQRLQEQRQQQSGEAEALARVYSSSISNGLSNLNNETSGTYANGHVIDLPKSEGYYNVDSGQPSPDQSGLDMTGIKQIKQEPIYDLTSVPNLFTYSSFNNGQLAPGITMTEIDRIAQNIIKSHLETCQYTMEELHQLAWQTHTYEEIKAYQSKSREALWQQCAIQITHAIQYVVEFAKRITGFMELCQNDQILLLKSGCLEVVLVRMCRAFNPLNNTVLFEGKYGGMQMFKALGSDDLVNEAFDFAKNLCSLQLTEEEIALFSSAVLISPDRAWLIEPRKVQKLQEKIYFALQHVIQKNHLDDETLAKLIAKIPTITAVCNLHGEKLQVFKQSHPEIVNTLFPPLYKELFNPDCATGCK
Test: Inverse agonist activity at Gal4-fused RORbeta (unknown origin)
endpoint name: pEC50
pEC50 (log units): -log10 of the concentration in mol/L.

Ask | Look up pEC50 with Nuclear receptor ROR-beta (Homo sapiens, UniProt Q92753) for this molecule: CC(C)(O)CN1C(=O)[C@H](F)C[C@H]1C(=O)N1CC[C@@]2(S(=O)(=O)c3ccc(F)cc3)c3ccc(C(F)(C(F)(F)F)C(F)(F)F)cc3CC[C@@H]12
Reply | 5.08

* * *

assay: Tmax in BALB/c mouse at 4 mg/kg, po; type: ADME, organism-based; conditions: in vivo
endpoint name: Tmax (h)
Value expressed in h; do not type the unit.

Ask | Looking for the measured Tmax of CC(C)(O)CN1C(=O)[C@H](F)C[C@H]1C(=O)N1CC[C@@]2(S(=O)(=O)c3ccc(F)cc3)c3ccc(C(F)(C(F)(F)F)C(F)(F)F)cc3CC[C@@H]12 , can you help?
Reply | 4.3

* * *

assay: Drug concentration in BALB/c mouse at 4 mg/kg, po measured upto 24 hrs; format: ADME, organism-based; details: in vivo, read-out: Drug uptake
endpoint name: concentration at 24 h (nM)
# value in nM; strip the unit string

Ask | Requested read-out: concentration at 24 h. Entry: CC(C)(O)CN1C(=O)[C@H](F)C[C@H]1C(=O)N1CC[C@@]2(S(=O)(=O)c3ccc(F)cc3)c3ccc(C(F)(C(F)(F)F)C(F)(F)F)cc3CC[C@@H]12
Reply | 620

* * *

assay: Kinetic solubility of compound in 0.1 N HCK solvent at pH 1; type: physicochemical; details: 0.1 N HCl (printed 0.1 N HCK), read-out: Kinetic_solubility
endpoint name: solubility kinetic

Ask | Endpoint output: solubility kinetic of CC(C)(O)CN1C(=O)[C@H](F)C[C@H]1C(=O)N1CC[C@@]2(S(=O)(=O)c3ccc(F)cc3)c3ccc(C(F)(C(F)(F)F)C(F)(F)F)cc3CC[C@@H]12 . Value?
Reply | < 1 µg/mL

* * *

assay: Kinetic solubility of compound in acetate buffer at pH 6.5; assay type: physicochemical; conditions: read-out: Kinetic_solubility
endpoint name: solubility kinetic

Ask | Could you share which solubility kinetic value was measured for CC(C)(O)CN1C(=O)[C@H](F)C[C@H]1C(=O)N1CC[C@@]2(S(=O)(=O)c3ccc(F)cc3)c3ccc(C(F)(C(F)(F)F)C(F)(F)F)cc3CC[C@@H]12 ?
Reply | < 1 µg/mL

* * *

experiment: Drug concentration in IL-23 induced acanthosis in C57BL/6 mouse measured as (3R,5S)-3-Fluoro-5-((3aR,9bR)-9b-((4-fluorophenyl)sulfonyl)-7-(perfluoropropan-2-yl)-2,3,3a,4,5,9b-hexahydro-1H-benzo[e]indole-3-carbonyl)-1-(2-hydroxy-2-methylpropyl)pyrrolidin-2-one at 45 mg/kg, po qd administered for 2 hrs before IL-23 injection measured on day 11; type: ADME, organism-based; details: in vivo, 24 h, time 1 day, read-out: Ct
endpoint name: concentration (nM)
Record the value in nM, omitting the unit from your answer.

Ask | State the recorded concentration for this entry: CC(C)(CN1C(=O)[C@H](F)C[C@H]1C(=O)N1CC[C@@]2(S(=O)(=O)c3ccc(F)cc3)c3ccc(C(F)(C(F)(F)F)C(F)(F)F)cc3CC[C@@H]12)OP(=O)(O)O
Reply | 910

* * *

biological target: UniProt Q13133; assay: Inverse agonist activity at LXRalpha (unknown origin)
Sequence (Q13133 whole entry): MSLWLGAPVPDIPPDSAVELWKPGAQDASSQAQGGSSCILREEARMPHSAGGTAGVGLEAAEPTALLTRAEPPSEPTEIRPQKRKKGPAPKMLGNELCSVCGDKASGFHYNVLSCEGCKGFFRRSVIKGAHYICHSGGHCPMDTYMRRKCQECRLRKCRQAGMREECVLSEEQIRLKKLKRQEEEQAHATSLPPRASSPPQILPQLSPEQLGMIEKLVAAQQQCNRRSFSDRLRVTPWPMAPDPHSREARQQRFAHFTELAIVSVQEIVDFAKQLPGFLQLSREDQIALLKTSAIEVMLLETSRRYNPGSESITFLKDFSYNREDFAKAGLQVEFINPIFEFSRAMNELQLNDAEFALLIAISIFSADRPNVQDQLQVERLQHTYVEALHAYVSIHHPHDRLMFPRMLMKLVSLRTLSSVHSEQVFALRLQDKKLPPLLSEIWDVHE
endpoint name: EC50

Ask | Dear colleague, I am looking for the recorded EC50 of the following compound: CC(C)(O)CN1C(=O)[C@H](F)C[C@H]1C(=O)N1CC[C@@]2(S(=O)(=O)c3ccc(F)cc3)c3ccc(C(F)(C(F)(F)F)C(F)(F)F)cc3CC[C@@H]12
Reply | > 7.5 µM
